Reported Time is given for each of the following compounds.
test: Antiplatelet activity in Mus musculus Laca (mouse) platelet assessed as bleeding time at 15 mg/kg, po after 1 hr by tail transaction bleeding test (reference value: 3.2 +/- 0.218 min); assay type: functional
Numeric answer only, unit min assumed.

Use these answered entries as a reference point.
[[record]]
compound = "CC(=O)Oc1ccccc1C(=O)O [ASPIRIN]"
observed_result = 5.3

[[record]]
compound = "O=C1CCC(c2ccc(NCc3ccc(F)cc3)cc2)=NN1"
observed_result = 4.9

[[record]]
compound = "O=C1CCC(c2ccc(NCc3ccncc3)cc2)=NN1"
observed_result = 5.3

[[record]]
compound = "COc1ccc(CNc2ccc(C3=NNC(=O)CC3)cc2)cc1OC"
observed_result = 5.6

[[record]]
compound = "COc1cc(CNc2ccc(C3=NNC(=O)CC3)cc2)cc(OC)c1OC"
observed_result = 5.2


Give the measured Time of COc1cc(CNc2ccc(C3=NNC(=O)CC3)cc2)ccc1O .
5.2

What value of Time has been recorded for this entry: O=C1CCC(c2ccc(NCc3c[nH]c4ccccc34)cc2)=NN1
8.3

// returns reported Time for input O=C1CCC(c2ccc(NCc3ccccc3O)cc2)=NN1
7.4

Quick one: Time for O=C1CCC(c2ccc(NCc3cccnc3)cc2)=NN1 ?
5.5

---

test: Antiplatelet activity in Mus musculus Laca (mouse) platelet assessed as bleeding time at 60 mg/kg, po after 1 hr by tail transaction bleeding test (reference value: 3.2 +/- 0.218 min); format: functional
Hi! Could you tag entries with Time below 7 min as true, and those at or above as false? Much appreciated.

Just wondering, is Time of O=C1CCC(c2ccc(NCc3c[nH]c4ccccc34)cc2)=NN1 below 7 min?
false

Does COc1cc(CNc2ccc(C3=NNC(=O)CC3)cc2)cc(OC)c1OC have Time strictly under 7 min?
true

Decide: Time of CC(=O)Oc1ccccc1C(=O)O strictly below 7 min?
true

---

assay: Antiplatelet activity in Mus musculus Laca (mouse) platelet assessed as bleeding time at 30 mg/kg, po after 1 hr by tail transaction bleeding test (reference value: 3.2 +/- 0.218 min); type: functional
Entries and their Time values follow.
A number alone suffices; assume min.

See these solved cases before continuing.
[[record]]
compound = "CC(=O)Oc1ccccc1C(=O)O [ASPIRIN]"
observed_result = 6.1

[[record]]
compound = "COc1cc(CNc2ccc(C3=NNC(=O)CC3)cc2)ccc1O"
observed_result = 6.1

[[record]]
compound = "COc1ccc(CNc2ccc(C3=NNC(=O)CC3)cc2)cc1OC"
observed_result = 6.5


Could you share which Time value was measured for O=C1CCC(c2ccc(NCc3cccnc3)cc2)=NN1 ?
6.2

---

Listed molecules paired with reported Time
experiment: Antiplatelet activity in Mus musculus Laca (mouse) platelet assessed as bleeding time at 60 mg/kg, po after 1 hr by tail transaction bleeding test (reference value: 3.2 +/- 0.218 min); type: functional
Express it in min; write the number only.

Recorded Time of O=C1CCC(c2ccc(NCc3ccc(F)cc3)cc2)=NN1 , please.
7

Which Time is reported for this molecule? O=C1CCC(c2ccc(NCc3cccnc3)cc2)=NN1
6.6

---

test: Antiplatelet activity in Mus musculus Laca (mouse) platelet assessed as bleeding time at 30 mg/kg, po after 1 hr by tail transaction bleeding test (reference value: 3.2 +/- 0.218 min); type: functional
Each entry below carries its reported Time.
# output: bare number, implied unit min

Check out these entries, answers already filled in.
[[record]]
line_notation = "O=C1CCC(c2ccc(NCc3ccncc3)cc2)=NN1"
unit_info = "min"
observed_result = 6.2

[[record]]
line_notation = "O=C1CCC(c2ccc(NCc3ccc(F)cc3)cc2)=NN1"
unit_info = "min"
observed_result = 6.2

[[record]]
line_notation = "O=C1CCC(c2ccc(NCc3ccccc3O)cc2)=NN1"
unit_info = "min"
observed_result = 8.5

[[record]]
line_notation = "O=C1CCC(c2ccc(NCc3c[nH]c4ccccc34)cc2)=NN1"
unit_info = "min"
observed_result = 9.2


Turning now to a further record.
What value of Time has been recorded for this entry: COc1cc(CNc2ccc(C3=NNC(=O)CC3)cc2)cc(OC)c1OC
6.1

These data points were gathered from ChEMBL document CHEMBL3045234.
